# experimental_target: HLA-A*02:06
# test: IEDB peptide-MHC binding, purified MHC/competitive/radioactivity; filed as Kd, often an IC50 or EC50 that approximates it; bounds were set here for any values at or beyond the usual limits of such assays
# condition: source organism: Dengue virus 3 Martinique/1243/1999
reported_property: Kd (nM)

| biopolymer_sequence | endpoint_value |
| --- | --- |
| GVFHTMWHV | 4.41 |
| LLLGVGLAMA | 3.81 |

---

# experimental_target: HLA-A*02:19
# test: IEDB peptide-MHC binding, purified MHC/competitive/fluorescence; filed as Kd, often an IC50 or EC50 that approximates it; bounds were set here for any values at or beyond the usual limits of such assays
# condition: source organism: Brucella suis ATCC 23445
pKd: −log10 of the molar value.
reported_property: pKd

| biopolymer_sequence | endpoint_value |
| --- | --- |
| ITAVNRYFK | ≤ 4.70 |
